# STUDY_SYSTEM: T1, human GPC3-His protein (human, UniProt P51654 25-559)
# T1 construct: Bought protein; also called human GPC3 protein; not shown: His tag
# METHOD: ELISA, coated human GPC3, antibody 0.001 nM
READOUT_LABEL: OD450 nm (OD450)
Numbers only here, please. The scale is OD450.

Please give measured OD450 nm of the following entry: F2.169.2 human-murine chimeric antibody (antibody, human IgG1, kappa, V domains shown) VH: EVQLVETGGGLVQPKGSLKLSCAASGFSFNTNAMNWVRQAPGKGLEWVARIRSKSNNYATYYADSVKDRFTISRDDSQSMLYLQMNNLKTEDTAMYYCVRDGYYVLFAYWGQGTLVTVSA VL: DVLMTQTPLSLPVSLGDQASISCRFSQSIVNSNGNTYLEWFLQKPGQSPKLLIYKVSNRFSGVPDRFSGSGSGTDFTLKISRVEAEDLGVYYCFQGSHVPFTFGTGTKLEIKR
0.11

Please give measured OD450 nm of the following entry: F1.92.17 human-murine chimeric antibody (antibody, human IgG1, kappa, V domains shown) VH: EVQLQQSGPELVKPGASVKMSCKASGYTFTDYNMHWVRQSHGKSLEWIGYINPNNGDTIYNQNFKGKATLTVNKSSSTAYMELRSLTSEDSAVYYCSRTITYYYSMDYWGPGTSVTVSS VL: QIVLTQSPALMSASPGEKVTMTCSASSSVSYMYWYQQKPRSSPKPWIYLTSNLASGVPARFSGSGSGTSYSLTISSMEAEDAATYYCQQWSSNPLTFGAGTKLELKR
0.09

Please give measured OD450 nm of the following entry: F4.21.16 human-murine chimeric antibody (antibody, human IgG1, kappa, V domains shown) VH: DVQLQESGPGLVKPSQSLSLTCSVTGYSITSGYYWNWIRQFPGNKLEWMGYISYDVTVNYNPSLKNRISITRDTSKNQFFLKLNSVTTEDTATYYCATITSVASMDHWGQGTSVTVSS VL: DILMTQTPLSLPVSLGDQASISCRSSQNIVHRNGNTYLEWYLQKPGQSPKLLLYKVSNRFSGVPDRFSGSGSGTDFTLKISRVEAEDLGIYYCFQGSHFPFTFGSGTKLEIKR
0.1

Next:
Please give measured OD450 nm of the following entry: F1.111.11 human-murine chimeric antibody (antibody, human IgG1, kappa, V domains shown) VH: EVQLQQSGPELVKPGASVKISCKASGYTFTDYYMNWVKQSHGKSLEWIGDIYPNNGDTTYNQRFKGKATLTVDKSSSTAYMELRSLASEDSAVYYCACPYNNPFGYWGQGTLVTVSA VL: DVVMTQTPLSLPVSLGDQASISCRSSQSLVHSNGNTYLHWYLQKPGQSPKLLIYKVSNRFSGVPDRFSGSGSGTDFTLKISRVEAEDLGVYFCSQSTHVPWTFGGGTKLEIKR
0.14

Please give measured OD450 nm of the following entry: F1.83.6 human-murine chimeric antibody (antibody, human IgG1, kappa, V domains shown) VH: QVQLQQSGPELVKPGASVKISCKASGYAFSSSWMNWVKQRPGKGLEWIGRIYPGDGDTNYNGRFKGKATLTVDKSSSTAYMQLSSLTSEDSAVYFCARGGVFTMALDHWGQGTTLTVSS VL: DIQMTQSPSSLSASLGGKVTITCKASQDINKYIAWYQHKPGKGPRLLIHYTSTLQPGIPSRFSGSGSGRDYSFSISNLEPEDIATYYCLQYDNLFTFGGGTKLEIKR
0.1

Source: patent US20260116991A1
